The measurements presented in this section are drawn from PubChem BioAssay AID1835.

molecular target: Voltage-gated inwardly rectifying potassium channel KCNH2 (Homo sapiens) (UniProt Q12809); assay: hERG protection against dofetilide inhibition, confirmation, cell-based, thallium flux, duplicate retest, dofetilide IC70 (AID 1835); details: hERG cell line, FluxOR thallium flux, dofetilide-blocked; at 10 µM; stronger effect = higher value
Sequence (Q12809 whole entry, looked up): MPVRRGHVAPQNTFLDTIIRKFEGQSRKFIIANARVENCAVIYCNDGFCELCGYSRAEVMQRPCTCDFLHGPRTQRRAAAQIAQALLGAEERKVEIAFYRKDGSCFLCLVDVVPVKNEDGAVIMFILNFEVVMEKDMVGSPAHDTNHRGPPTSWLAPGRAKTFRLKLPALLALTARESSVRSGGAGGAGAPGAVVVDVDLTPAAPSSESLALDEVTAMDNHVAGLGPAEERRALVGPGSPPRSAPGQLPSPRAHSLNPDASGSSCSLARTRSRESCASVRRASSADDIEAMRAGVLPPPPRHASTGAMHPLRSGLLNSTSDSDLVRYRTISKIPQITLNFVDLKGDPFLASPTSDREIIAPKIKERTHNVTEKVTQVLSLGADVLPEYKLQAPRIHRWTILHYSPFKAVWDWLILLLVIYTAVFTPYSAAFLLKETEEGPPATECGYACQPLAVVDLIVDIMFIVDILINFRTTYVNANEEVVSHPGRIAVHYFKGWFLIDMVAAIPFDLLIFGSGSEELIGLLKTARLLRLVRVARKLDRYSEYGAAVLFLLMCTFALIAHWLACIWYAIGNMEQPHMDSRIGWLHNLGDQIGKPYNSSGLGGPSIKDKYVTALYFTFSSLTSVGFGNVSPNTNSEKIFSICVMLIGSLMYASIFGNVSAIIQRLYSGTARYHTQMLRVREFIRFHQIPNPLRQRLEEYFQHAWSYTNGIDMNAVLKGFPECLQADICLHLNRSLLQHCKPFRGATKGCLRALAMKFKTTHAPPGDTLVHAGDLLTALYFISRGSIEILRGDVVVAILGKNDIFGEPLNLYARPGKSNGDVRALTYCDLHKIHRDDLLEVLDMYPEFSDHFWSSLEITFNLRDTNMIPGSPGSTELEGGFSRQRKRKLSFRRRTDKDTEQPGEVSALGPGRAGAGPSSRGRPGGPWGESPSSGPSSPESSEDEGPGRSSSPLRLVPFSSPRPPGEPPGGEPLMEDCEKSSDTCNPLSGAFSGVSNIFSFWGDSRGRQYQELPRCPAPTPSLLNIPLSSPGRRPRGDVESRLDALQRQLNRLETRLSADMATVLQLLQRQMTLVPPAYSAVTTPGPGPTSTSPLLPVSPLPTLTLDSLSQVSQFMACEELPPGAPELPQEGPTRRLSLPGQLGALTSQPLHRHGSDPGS
Out of some 2,400 compounds screened, about 750 (31%) were called active. This is one part of the list.
Items are presented alongside their recorded activity increase over dofetilide control, less the hit threshold.
PROPERTY_MEASURED: activity increase over dofetilide control, less the hit threshold (%)

| COMPOUND | UNIT_TAG | ENDPOINT_RESULT |
| --- | --- | --- |
| Cc1cccc(/C=C/C(=O)c2cc(Br)ccc(=O)c2O)c1 | % | -14 |
| CCc1ccc(NC(=S)Nc2cccc(OC)c2)cc1 | % | -26 |
| CSc1nc(-c2ccccc2)[nH]c(=S)c1C(C)=O | % | 61 |
| C=CCNC(=O)CC(=O)N/N=C/c1cccs1 | % | 0 |
| CC(C)CNC(=S)NC(=O)c1ccc(Cl)cc1 | % | 19 |
| Cc1ccc(NC2=CC(=O)OC(C)C2)cc1 (stereo unspecified) | % | -4 |
| CC1CCCC(C)N1S(=O)(=O)c1ccc(NC(=O)CCn2cnc3ccccc3c2=O)cc1 (stereo unspecified) | % | -12 |
| Cc1cc(=O)[nH]c(SCC(=O)NC2CCCCC2)n1 | % | 0 |
| CC(=O)c1c(N2CCCC2)[nH]c(-c2ccccc2)nc1=S | % | -1 |
| COc1cccc(N2CC(C(=O)Nc3nnc(SCC(=O)NCC4CCCO4)s3)CC2=O)c1 (stereo unspecified) | % | -4 |
| COc1cccc(NC(=O)c2cncs2)c1 | % | -13 |
| Cc1cc(Cl)ccc1OC(C)C(=O)NCCc1ccc2c(c1)OCCO2 (stereo unspecified) | % | -16 |
| COc1cccc(C(=O)NNC(=O)C(=O)Nc2ccc(C)cc2)c1 | % | 56 |
| CCc1ccc(/C=C/C(=O)c2cc(Br)ccc(=O)c2O)cc1 | % | 13 |
| CCOc1cccc(C(=O)Nc2ccc3[nH]ncc3c2)c1 | % | -18 |
| CCc1ccc(NC(=O)C(=O)NNC(=O)c2cccc(OC)c2)cc1 | % | 70 |
| COc1ccc(NC(=O)c2ccc(NC3=NC4CS(=O)(=O)CC4S3)cc2)cc1 (stereo unspecified) | % | -17 |
| Cc1ccc(C(=O)CC(=O)c2cc(Cl)ccc2O)cc1 | % | 8 |
| O=C(NC(=S)NNC(=O)[C@H]1C[C@@H]1c1ccccc1)c1cccc(F)c1 | % | -14 |
| CCn1cc(C(=O)NCCN(C)C)c(=O)c2cc(F)c(N3CCN(C)CC3)cc21 | % | -17 |
| COc1ccc(C2/C(=C(/O)c3ccc(Br)cc3)C(=O)C(=O)N2C)cc1 (stereo unspecified) | % | -7 |

---

target: Voltage-gated inwardly rectifying potassium channel KCNH2 (Homo sapiens); assay: hERG protection against dofetilide inhibition, confirmation, cell-based, thallium flux, duplicate retest, dofetilide IC70 (AID 1835); settings: hERG cell line, FluxOR thallium flux, dofetilide-blocked; at 10 µM; stronger effect = higher value
In all, about 2,400 compounds went through this assay and about 750 (31%) were called active. The list shows a part of the results.
PROPERTY_MEASURED: activity increase over dofetilide control, less the hit threshold (%)

| MOLECULE | SYSTEM_NAME | UNIT_TAG | ENDPOINT_RESULT |
| --- | --- | --- | --- |
| O=C(COc1ccc2c3c(c(=O)oc2c1)CCC3)NCC1CCC(C(=O)O)CC1 (configuration not stated) | Voltage-gated inwardly rectifying potassium channel KCNH2 (Homo sapiens) | % | -7 |
| CC(C)CSC1=NSC2=NC(=O)/C(=C\c3ccccc3)C(=N)N12 | Voltage-gated inwardly rectifying potassium channel KCNH2 (Homo sapiens) | % | 32 |
| CC(C)(C)c1cc(CCC(=O)NCc2ccncc2)cc(C(C)(C)C)c1O | Voltage-gated inwardly rectifying potassium channel KCNH2 (Homo sapiens) | % | -11 |
| COc1cccc(C=NCCCN=Cc2cccc(OC)c2O)c1O | Voltage-gated inwardly rectifying potassium channel KCNH2 (Homo sapiens) | % | 9 |
| COC(=O)c1cc(S(=O)(=O)NCC2CCN(Cc3cc(C)ccc3C)CC2)c[nH]1 | Voltage-gated inwardly rectifying potassium channel KCNH2 (Homo sapiens) | % | -12 |
| CCn1c(O)c(N=NC(=O)CNC(=O)c2ccccc2F)c2ccccc21 | Voltage-gated inwardly rectifying potassium channel KCNH2 (Homo sapiens) | % | -7 |
| CC1Cc2ccccc2N1C(=S)NC(=O)C1(C)CC1(Cl)Cl (configuration not stated) | Voltage-gated inwardly rectifying potassium channel KCNH2 (Homo sapiens) | % | 42 |
| COC(=O)c1cccc(/C=N/NC(N)=S)c1O | Voltage-gated inwardly rectifying potassium channel KCNH2 (Homo sapiens) | % | -9 |
| O=C(O)c1ccc2c(c1)C(=O)N(c1cc([N+](=O)[O-])ccn1)C2=O | Voltage-gated inwardly rectifying potassium channel KCNH2 (Homo sapiens) | % | -3 |
| Cc1cc(=O)[nH]c(N/N=C2/CCCC/C2=C\c2ccccc2)n1 | Voltage-gated inwardly rectifying potassium channel KCNH2 (Homo sapiens) | % | -9 |
| Cc1cccc(NC(=S)NC(=O)c2ccc(Br)o2)c1 | Voltage-gated inwardly rectifying potassium channel KCNH2 (Homo sapiens) | % | 33 |
| Cc1cc(=O)oc2c3c(cc(OCC(=O)N[C@@H](Cc4ccccc4)C(=O)O)c12)OC(C)(C)CC3 | Voltage-gated inwardly rectifying potassium channel KCNH2 (Homo sapiens) | % | -3 |
| O=c1oc2cc(OCCO)ccc2c2c1CCCC2 | Voltage-gated inwardly rectifying potassium channel KCNH2 (Homo sapiens) | % | -8 |
| O=C(OCc1ccccc1)/C(=C/c1cccc([N+](=O)[O-])c1)NC(=O)c1ccco1 | Voltage-gated inwardly rectifying potassium channel KCNH2 (Homo sapiens) | % | -5 |
| CS(=O)(=O)Nc1cccc(-c2cn3ccccc3n2)c1 | Voltage-gated inwardly rectifying potassium channel KCNH2 (Homo sapiens) | % | -13 |
| CCN(CC(=O)Nc1c(F)cccc1F)C(=O)c1ccc(Cl)c(S(=O)(=O)N2CCCCC2)c1 | Voltage-gated inwardly rectifying potassium channel KCNH2 (Homo sapiens) | % | -19 |
| COc1cccc(C=Nc2cc(C)cc(C)c2)c1O | Voltage-gated inwardly rectifying potassium channel KCNH2 (Homo sapiens) | % | 3 |
| Cc1oc(/N=C/c2ccc(F)cc2)c(C#N)c1C | Voltage-gated inwardly rectifying potassium channel KCNH2 (Homo sapiens) | % | -20 |
| Cc1c(C)c2ccc(OCC(=O)N[C@@H](Cc3ccccc3)C(=O)O)cc2oc1=O | Voltage-gated inwardly rectifying potassium channel KCNH2 (Homo sapiens) | % | 2 |
| CC(Sc1n[nH]c(=O)[nH]c1=O)C(=O)OCc1ccccc1 (configuration not stated) | Voltage-gated inwardly rectifying potassium channel KCNH2 (Homo sapiens) | % | -11 |
| CC1Cc2ccccc2N1C(=S)NC(=O)c1ccco1 (configuration not stated) | Voltage-gated inwardly rectifying potassium channel KCNH2 (Homo sapiens) | % | 6 |
| C/C(=N\NC(=S)Nc1cccc(C)c1)c1ccco1 | Voltage-gated inwardly rectifying potassium channel KCNH2 (Homo sapiens) | % | -26 |
| CC(=O)N1CCc2cc(S(=O)(=O)N3c4ccccc4CC3C)ccc21 (configuration not stated) | Voltage-gated inwardly rectifying potassium channel KCNH2 (Homo sapiens) | % | -14 |
| Cc1[nH]n(-c2ccccc2)c(=O)c1N=Nc1ccc(C(N)=O)cc1 | Voltage-gated inwardly rectifying potassium channel KCNH2 (Homo sapiens) | % | -23 |
| CCn1c(O)c(N=NC(=S)NCC2CCCO2)c2ccccc21 (configuration not stated) | Voltage-gated inwardly rectifying potassium channel KCNH2 (Homo sapiens) | % | -1 |
| Cc1cc(NC(=O)CSc2ccc3nnc(-c4cccs4)n3n2)no1 | Voltage-gated inwardly rectifying potassium channel KCNH2 (Homo sapiens) | % | -17 |
| S=c1nc(-c2ccccc2)[nH]c2ccc(Br)cc12 | Voltage-gated inwardly rectifying potassium channel KCNH2 (Homo sapiens) | % | 95 |
| N#Cc1c(N)c(C(=O)c2ccccc2)n2ccccc12 | Voltage-gated inwardly rectifying potassium channel KCNH2 (Homo sapiens) | % | -2 |
| COCCn1c(=S)[nH]c2sc3c(c2c1=O)CCC(C)C3 (configuration not stated) | Voltage-gated inwardly rectifying potassium channel KCNH2 (Homo sapiens) | % | 44 |
| COc1ccccc1NC(=S)NC(=O)c1ccc(-c2ccc(Cl)cc2)o1 | Voltage-gated inwardly rectifying potassium channel KCNH2 (Homo sapiens) | % | 8 |
| COCCCn1c(=S)[nH]c2sc3c(c2c1=O)CCCC3 | Voltage-gated inwardly rectifying potassium channel KCNH2 (Homo sapiens) | % | 29 |
| Cc1csc2ncc(C(=O)N3c4ccccc4CC3C)c(=O)n12 (configuration not stated) | Voltage-gated inwardly rectifying potassium channel KCNH2 (Homo sapiens) | % | -2 |
